All values here come from ChEMBL document CHEMBL1131853.

Target: D(2) dopamine receptor (Rattus norvegicus)
Sequence (P61169 whole entry): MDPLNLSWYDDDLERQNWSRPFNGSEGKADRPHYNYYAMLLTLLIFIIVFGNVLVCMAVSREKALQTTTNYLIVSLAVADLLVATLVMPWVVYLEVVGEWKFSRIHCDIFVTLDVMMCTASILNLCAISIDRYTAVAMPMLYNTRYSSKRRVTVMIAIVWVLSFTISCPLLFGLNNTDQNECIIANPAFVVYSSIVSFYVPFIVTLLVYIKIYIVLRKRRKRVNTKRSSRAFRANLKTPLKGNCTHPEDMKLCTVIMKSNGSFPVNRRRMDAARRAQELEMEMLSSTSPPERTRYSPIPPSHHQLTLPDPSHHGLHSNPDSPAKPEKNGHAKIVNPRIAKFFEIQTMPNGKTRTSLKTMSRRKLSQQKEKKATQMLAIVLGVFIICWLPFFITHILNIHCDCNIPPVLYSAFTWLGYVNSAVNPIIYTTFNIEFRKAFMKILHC
Test: Inhibition of [3H]raclopride binding to Dopamine receptor D2 of rat striatum membranes
# Lookup of reported IC50 keyed by entry
# value in µM; strip the unit string

These recorded examples may help you get a feel for the data.
Cl.O[C@H](COc1ccccc1)CN1CCC(c2ccc(Oc3ccccc3)cc2)CC1 ... 4.34
Cl.O[C@@H](COc1ccccc1)CN1CCC(c2ccc(Oc3ccccc3)cc2)CC1 ... 4.08

Proceed to the following item.
Record Cl.OC(COc1ccccc1)CN1CCC(c2ccc(Oc3ccccc3)cc2)CC1 (centres undefined) , field IC50: 4.64

###

Target: Sodium channel alpha subunits; brain (Types I, II, III) (Rattus norvegicus, UniProt P04775+P04774+P08104)
Test: Inhibition of veratridine-induced depolarization in rat cerebrocortical synaptosomes using the voltage sensitive fluorescent dye Rhodamine 6G
Assay type: functional, subcellular
We label by threshold. Values of IC50 strictly beneath 200 nM are met. Values of 200 nM and up are not met.

Completed entries (count: 3):
Cl.O[C@@H](COc1ccccc1)CN1CCC(c2ccc(Oc3ccccc3)cc2)CC1 ... met
Cl.OC(COc1ccccc1)CN1CCC(c2ccc(Cc3ccc(F)cc3)cc2)CC1 (stereo unspecified) ... not met
Cl.OC(COc1ccccc1)CN1CCC(c2ccc(Oc3ccccc3)cc2)CC1 (stereo unspecified) ... not met

Dear colleague, could you confirm whether IC50 of Cl.O[C@H](COc1ccccc1)CN1CCC(c2ccc(Oc3ccccc3)cc2)CC1 falls below 200 nM? Thanks.
met

Quick check: does Cl.Fc1ccc(Cc2ccc(C3CCN(C/C=C/c4ccccc4)CC3)cc2)cc1 have IC50 under 200 nM?
met

Given C(=C\c1ccccc1)/CN1CCC(c2ccc(Oc3ccccc3)cc2)CC1.Cl , is recorded IC50 strictly lower than 200 nM?
not met
